# System: SW480
# Test Description: TCF/Wnt firefly luciferase reporter signal relative to plate median (fraction of plate median); higher = higher Wnt reporter signal
# Test Settings: 5 µM; treatment time 24 h; reporter: 7TFP
Measured Property: TCF/Wnt firefly luciferase reporter signal

O=C(NC(=O)c1c(F)cccc1F)Nc1ccc(Cl)cc1: 0.876
C[C@]12CCC(=O)C=C1C=C[C@@H]1[C@@H]2CC[C@@]2(C)[C@H]1CC[C@@]2(O)CCC(=O)O: 1.06
COc1ccc([C@H]2Oc3c(I)c(OC)cc(OC)c3C[C@@H]2O)cc1OC: 1.07
COP(=O)(OC)OC=C(Cl)Cl: 1.03
CC(C)(C)[C@]1(O)C[C@@H]2OC(=O)C[C@@]23C(=O)O[C@@H]2OC(=O)[C@H](O)[C@]213: 1.07
COc1ccc2c(c1)[nH]c1c(C)nccc12: 0.625
NCCCNCCSP(=O)(O)O: 1.05
COC(=O)C1=CO[C@@H](C)[C@@H]2CN3CC[C@@]4(C(=O)Nc5ccccc54)[C@H]3C[C@H]12: 0.96
CN1C[C@H](CNC(=O)OCc2ccccc2)C[C@@H]2c3cccc4c3c(cn4C)C[C@H]21: 1.01
CCCC(=O)O[C@@H]1[C@@H](C)[C@@]2(O)[C@@H](C=C(CO)C[C@]3(O)C(=O)C(C)=C[C@@H]23)[C@@H]2C(C)(C)[C@]12OC(=O)CCC: 0.984
COc1cc(OC)c2c(c1)O[C@H](c1ccc(OC)c(OC)c1)[C@@H](O)C2: 1.01
C/C=C(\C)C(=O)O[C@H]1C[C@@H](OC(C)=O)[C@@]2(C(=O)OC)CO[C@H]3[C@@H](O)[C@@](C)([C@]45O[C@@]4(C)[C@H]4C[C@@H]5O[C@@H]5OC=C[C@@]54O)[C@H]4[C@]1(CO[C@]4(O)C(=O)OC)[C@@H]32: 0.962
COc1ccc(Cc2nccc3cc(OC)c(OC)cc23)cc1OC: 1.07
CC[C@H]1CN2CC[C@H]1C[C@@H]2[C@@H](O)c1ccnc2ccc(OC)cc12: 1.06

====

Catalogue of molecules with associated TCF/Wnt firefly luciferase reporter signal
# Tested on: DLD1
# Test Description: TCF/Wnt firefly luciferase reporter signal relative to plate median (fraction of plate median); higher = higher Wnt reporter signal
# Test Settings: 5 µM; treatment time 24 h; reporter: 7TFP
Measured Property: TCF/Wnt firefly luciferase reporter signal

C[C@]12CCC(=O)C=C1C=C[C@@H]1[C@@H]2CC[C@@]2(C)[C@H]1CC[C@@]2(O)CCC(=O)O: 1.01
O=C1C=C2C(=CCOC2O)O1 (centres undefined): 0.993
COc1cc2c(cc1OC)[C@@H]1C(=O)c3ccc4oc(C(C)C)cc4c3O[C@@H]1CO2: 0.974
CC(=O)O[C@H]1C[C@@H]2CC[C@@H]3[C@H](CC[C@@]4(C)[C@H]3C[C@H]([N+]3(C)CCCCC3)[C@@H]4OC(C)=O)[C@@]2(C)C[C@@H]1[N+]1(C)CCCCC1: 1.01
CC(NC(C)(C)C)C(=O)c1cccc(Cl)c1 (centres undefined): 1.11
COc1cc2c(cc1OC)[C@@]13CCN4CC5=CCO[C@H]6CC(=O)N2[C@H]1[C@H]6[C@H]5C[C@H]43: 0.876
CC(C)(C)[C@]1(O)C[C@@H]2OC(=O)C[C@@]23C(=O)O[C@@H]2OC(=O)[C@H](O)[C@]213: 1.17
C[C@H]1O[C@@H](O[C@H]2[C@@H](O)C[C@H](O[C@H]3[C@@H](O)C[C@H](O[C@H]4CC[C@@]5(C)[C@H](CC[C@@H]6[C@@H]5CC[C@]5(C)[C@@H](C7=CC(=O)OC7)[C@@H](O)C[C@]65O)C4)O[C@@H]3C)O[C@@H]2C)C[C@H](O)[C@@H]1O: 0.611
CON1C(=O)[C@H]2NC(=O)[C@]13Oc1cc(O)c(Cl)cc1[C@@H]3SS2: 0.981
Cl[C@H]1[C@H](Cl)[C@@H](Cl)[C@@H](Cl)[C@H](Cl)[C@H]1Cl: 1.05
CCNc1nc(Cl)nc(NCC)n1: 0.938
CNC(C)[C@H](O)c1ccccc1 (some centres undefined): 0.978
Nc1ccncc1: 1.03
C=CCc1cc(OC)c2c(c1OC)OCO2: 0.876
CN1[C@@H]2CC[C@H]1C[C@@H](OC(=O)[C@H](CO)c1ccccc1)C2: 0.974
CC[N+]1(C)CCCC(OC(=O)C(O)(c2ccccc2)c2ccccc2)C1 (centres undefined): 0.857
OC[C@@H]1CCCN2CCCC[C@H]12: 0.898
C/C=C/[C@H]1O[C@@](O)([C@@H](C)[C@H](O)[C@H](C)[C@H]2OC(=O)/C(OC)=C/C(C)=C/[C@@H](C)[C@@H](O)[C@@H](CC)[C@@H](O)[C@H](C)C/C(C)=C/C=C/[C@@H]2OC)C[C@@H](O[C@H]2C[C@@H](O)[C@H](OC(N)=O)[C@@H](C)O2)[C@@H]1C: 0.806
COc1cc2c(cc1O)CCN[C@@H]2C: 0.89

====

# Test system: DLD1
# Test Description: TCF/Wnt firefly luciferase reporter signal relative to plate median (fraction of plate median); higher = higher Wnt reporter signal
# Test Settings: 5 µM; treatment time 24 h; reporter: 7TFP
Respond with YES for TCF/Wnt firefly luciferase reporter signal values of 1 and above, NO for values below.

CC(=O)O[C@H]1C[C@H](O[C@H]2[C@@H](O)C[C@H](O[C@H]3[C@@H](O)C[C@H](O[C@H]4CC[C@@]5(C)[C@H](CC[C@@H]6[C@@H]5C[C@@H](O)[C@]5(C)[C@@H](C7=CC(=O)OC7)CC[C@]65O)C4)O[C@@H]3C)O[C@@H]2C)O[C@H](C)[C@H]1O[C@@H]1O[C@H](CO)[C@@H](O)[C@H](O)[C@H]1O: NO
CN[C@@H]1[C@@H](O)[C@@H](O[C@@H]2[C@@H](O)[C@H](O[C@H]3O[C@H](CN)CC[C@H]3N)[C@@H](N)C[C@H]2N)OC[C@]1(C)O.CN[C@@H]1[C@@H](O)[C@@H](O[C@@H]2[C@@H](O)[C@H](O[C@H]3O[C@H]([C@@H](C)N)CC[C@H]3N)[C@@H](N)C[C@H]2N)OC[C@]1(C)O.CN[C@@H]1[C@@H](O)[C@@H](O[C@@H]2[C@@H](O)[C@H](O[C@H]3O[C@H]([C@@H](C)NC)CC[C@H]3N)[C@@H](N)C[C@H]2N)OC[C@]1(C)O: YES
N[C@H](CO)Cc1ccccc1: NO
CNC(=O)Oc1ccccc1OC(C)C: NO
CN(C)C(=O)Oc1cc(OC(=O)N(C)C)cc(C(O)CNC(C)(C)C)c1 (stereo not drawn): NO
CNC(C)C(O)c1ccccc1 (stereo not drawn): YES
CCC(C)C(=O)OC1CC2(C)C(c3ccoc3)OC(=O)CC23OC2(C)OC34C(OC(=O)C(C)C)C3(O)C(OC(=O)C5(C)OC5C)C5(C)CC3(O)C(C)(C5CC(=O)OC)C14O2 (stereo not drawn): YES
COc1cc2occc2c2oc(=O)ccc12: YES
CC(=O)O[C@@H]1C[C@H]2C(C)(C)C(=O)C=C[C@]2(C)[C@H]2CC[C@]3(C)C(=CC(=O)O[C@H]3c3ccoc3)[C@@]21C: YES
CCCCCCCCCc1ccc(O)cc1: YES
COc1ccc2[nH]cc(CCN)c2c1: NO
NNCc1ccccc1: YES

====

# System: SW480
# Test Description: cell viability (CellTiter-Glo) relative to plate median (fraction of plate median); higher = more viable cells
# Test Settings: 5 µM; treatment time 24 h; reporter: 7TFP
Measured Property: cell viability

CCOC(=O)c1cncn1[C@H](C)c1ccccc1: 0.991
NCC(O)c1ccc(O)cc1 (centres undefined): 0.972
Cc1ccc(C[N+](C)(C)C)o1: 1.02
O=C(O)CCC1NCC2CC1CN1CCCCC21 (centres undefined): 0.971

====

# System: HCT116
# Test Description: cell viability (CellTiter-Glo) relative to plate median (fraction of plate median); higher = more viable cells
# Test Settings: 5 µM; treatment time 24 h; reporter: TCF4/Wnt
Catalogue of compounds with associated cell viability
Measured Property: cell viability

CC(=O)Nc1cc([As](=O)(O)O)ccc1O: 0.994
COc1ccc(C(CN(C)C)C2(O)CCCCC2)cc1 (stereo not drawn): 0.972
C/C=C(\C)C(=O)O[C@H]1C[C@@H](OC(C)=O)[C@@]2(C(=O)OC)CO[C@H]3[C@@H](O)[C@@](C)([C@]45O[C@@]4(C)[C@H]4C[C@@H]5O[C@@H]5OC=C[C@@]54O)[C@H]4[C@]1(CO[C@]4(O)C(=O)OC)[C@@H]32: 0.999

The measurements presented in this section are drawn from the supplement of paper PMC6522484.
